- measurement target: glucocerebrosidase (Gcase) (Homo sapiens, UniProt P04062)
- Sequence (P04062 40-536): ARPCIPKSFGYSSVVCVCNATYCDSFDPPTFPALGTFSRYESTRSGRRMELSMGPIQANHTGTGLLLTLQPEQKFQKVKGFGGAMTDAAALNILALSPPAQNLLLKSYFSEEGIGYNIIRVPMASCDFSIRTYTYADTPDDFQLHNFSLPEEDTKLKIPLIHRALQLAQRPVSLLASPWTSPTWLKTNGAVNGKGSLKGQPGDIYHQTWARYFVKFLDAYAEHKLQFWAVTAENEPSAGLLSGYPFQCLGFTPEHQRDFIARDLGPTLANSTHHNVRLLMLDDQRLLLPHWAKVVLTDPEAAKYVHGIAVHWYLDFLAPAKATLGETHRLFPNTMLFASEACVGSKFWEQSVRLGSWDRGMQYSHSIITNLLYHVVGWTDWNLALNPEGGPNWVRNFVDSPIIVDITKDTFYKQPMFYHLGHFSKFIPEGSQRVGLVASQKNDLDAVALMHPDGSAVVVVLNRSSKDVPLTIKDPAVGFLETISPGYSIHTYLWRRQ
- procedure details: Glucocerebrosidase (Gcase) activation assay, 4-methylumbelliferyl-beta-D-glucopyranoside substrate, with saposin C
- Type: biochemical
- measurement context: 1 μM test compound; read-out: Percent Gcase Activation 1 μM Test Compound
endpoint name: activation at 1 µM

> print(dat)
                                    molecule  endpoint.value
 1  COCc1cc(-c2ccc(F)cc2)n2cnc(C(=O)N[C@@H](C)C3CC3)c2n1 [III-35]           < 30%
 2  Cc1cc(-c2ccnc(Cl)c2)nc2c(C(=O)N[C@@H](C)C3CC3)ncn12 [III-106]       30 to 60%
 3  Cc1cc(-c2ccccn2)nc2c(C(=O)N[C@H]3CC[C@H](OCC(C)C)CC3)ncn12 [III-96]       30 to 60%
 4  CCc1cc(-c2ccc(F)cc2)nc2c(C(=O)N[C@@H](C)C3CC3)ncn12 [III-33]           > 60%
 5  Cc1cc(-c2ccc(F)cc2)nc2c(C(=O)NC(C)C3CCCO3)ncn12 (centres unmarked) [III-80]           < 30%
 6  Cc1cc(-c2nc(Cl)cs2)nc2c(C(=O)NC(C)(C)C3CC3)ncn12 [III-140]           < 30%
 7  Cc1cc(-c2ccns2)nc2c(C(=O)NC(C)(C)C3CC3)ncn12 [III-60]           > 60%
 8  Cc1cc(-c2cnsc2)nc2c(C(=O)NC(C)(C)C3CC3)ncn12 [III-59]           > 60%
 9  Cc1cc(NC2CC2)nc2c(C(=O)NC(c3ccc(F)cc3)C(F)(F)F)ncn12 (centres unmarked) [III-91]           > 60%
10  Cc1cc(-n2ccc(Cl)n2)nc2c(C(=O)NC(C3CC3)C(F)(F)F)ncn12 (centres unmarked) [III-143]           > 60%
11  Cc1cc(-c2ccc(Cl)nc2)nc2c(C(=O)NC(C)(C)C3CC3)ncn12 [III-76]           > 60%
12  COc1cc(-c2cc(C)n3cnc(C(=O)NC(C4CC4)C4CC4)c3n2)ccc1Cl [III-175]           > 60%
13  C#Cc1cccc(C(NC(=O)c2ncn3c(C)cc(C)nc23)C(F)(F)F)c1 (centres unmarked) [III-3]           > 60%
14  CCc1cc(-c2cccc(F)c2)nc2c(C(=O)N[C@@H](C)C3CC3)ncn12 [III-113]           > 60%
15  Cc1cc(OC(C)C)nc2c(C(=O)NC(C3CC3)C3CC3)ncn12 [III-178]           > 60%
16  Cc1cc(C)n2cnc(C(=O)NC(C)C(C)C3CC3)c2n1 (centres unmarked) [III-47]       30 to 60%
17  CNc1cc(C)nc2c(C(=O)NC(c3ccc(F)cc3)C(F)(F)F)ncn12 (centres unmarked) [III-18]           > 60%
18  Cc1cc(-c2cccc(C#N)c2)nc2c(C(=O)NC(C3CC3)C(F)(F)F)ncn12 (centres unmarked) [III-152]           > 60%
19  Cc1cc(-c2ccc(F)cc2)nc2c(C(=O)NC(C)(C)C3CC3)ncn12 [III-26]           > 60%
20  Cc1cc(-c2cccc(C#N)c2)nc2c(C(=O)NC(C)(C)C3CC3)ncn12 [III-151]           > 60%
21  Cc1cc(N2CCCC(F)(F)C2)nc2c(C(=O)NC(C)(C)C3CC3)ncn12 [III-92]           > 60%
22  C#CC(C)(C)NC(=O)c1ncn2c(C)cc(-c3cccc(F)c3)nc12 [III-164]           > 60%
23  COc1ccnc(-c2cc(C)n3cnc(C(=O)NC(C)C4CC4)c3n2)c1 (centres unmarked) [III-100]       30 to 60%
24  Cc1cc(-c2cccc(F)c2)nc2c(C(=O)NC(C)(C)C(F)(F)F)ncn12 [III-183]           > 60%
25  Cc1cc(-c2cccc(OC3CC3)c2)nc2c(C(=O)NC(C)C(F)(F)F)ncn12 (centres unmarked) [III-169]           > 60%
26  CCc1cc(Oc2ccc(F)cc2)nc2c(C(=O)N[C@@H](C)C3CC3)ncn12 [III-166]       30 to 60%

###

- measurement target: glucocerebrosidase (Gcase) (Homo sapiens)
- procedure details: Glucocerebrosidase (Gcase) activation assay, 4-methylumbelliferyl-beta-D-glucopyranoside substrate, with saposin C
- Assay type: biochemical
- measurement context: 1 μM test compound; read-out: Percent Gcase Activation 1 μM Test Compound
endpoint name: activation at 1 µM

> print(dat)
                                    compound       endpoint.name  endpoint.value
 1  Cc1cc(-c2ccccc2F)nc2c(C(=O)NC(C)C3CC3)ncn12 (stereo not drawn)  activation at 1 µM           > 60%
 2  CC[C@H](C)NC(=O)c1ncn2c(C)cc(-c3cccc(F)c3)nc12  activation at 1 µM           > 60%
 3  Cc1cc(C)n2cnc(C(=O)NC(c3ccc(F)cc3)C(F)(F)F)c2n1 (stereo not drawn)  activation at 1 µM           > 60%
 4  Cc1cc(-c2cnc(Cl)c(F)c2)nc2c(C(=O)N[C@@H](C)C3CC3)ncn12  activation at 1 µM       30 to 60%
 5  Cc1cc(-c2cccnc2)nc2c(C(=O)NC(C)C3CC3)ncn12 (stereo not drawn)  activation at 1 µM           < 30%
 6  Cc1cc(-c2cccnc2)nc2c(C(=O)NC(C)(C)C)ncn12  activation at 1 µM           < 30%
 7  Cc1cc(-c2ccn3ccnc3c2)nc2c(C(=O)N[C@@H](C)C3CC3)ncn12  activation at 1 µM           < 30%
 8  Cc1cc(-c2ccccn2)nc2c(C(=O)NC(c3ccc(F)cc3)C(F)(F)F)ncn12 (stereo not drawn)  activation at 1 µM           > 60%
 9  Cc1cc(N2CCC(C)(C)C2=O)nc2c(C(=O)NC(C3CC3)C(F)(F)F)ncn12 (stereo not drawn)  activation at 1 µM       30 to 60%
10  Cc1cc(-c2cccnc2)nc2c(C(=O)NC(C)(C)C3CC3)ncn12  activation at 1 µM       30 to 60%
11  COCc1cc(-c2ccc(F)cc2)nc2c(C(=O)N[C@@H](C)C3CC3)ncn12  activation at 1 µM           > 60%
12  Cc1cc(-c2cccnc2)nc2c(C(=O)N[C@H]3CC[C@H](OCC(C)C)CC3)ncn12  activation at 1 µM       30 to 60%
13  CCCO[C@H]1CC[C@H](NC(=O)c2ncn3c(C)cc(-c4cccnc4)nc23)CC1  activation at 1 µM           < 30%
14  Cc1cn2cnc(C(=O)N[C@@H](C)C3CC3)c2nc1-c1ccc(F)cc1  activation at 1 µM           < 30%
15  Cc1cc(-c2ccc(F)cc2)nc2c(C(=O)N[C@@H](C)C3CCC3)ncn12  activation at 1 µM           > 60%
16  Cc1cc(C)n2cnc(C(=O)NC(C3CCCCC3)C(F)(F)F)c2n1 (stereo not drawn)  activation at 1 µM           > 60%
17  COCCOc1cccc(-c2cc(C)n3cnc(C(=O)N[C@@H](C)C4CC4)c3n2)c1  activation at 1 µM           > 60%
18  Cc1cc(-c2ccns2)nc2c(C(=O)NC(C3CC3)C(F)(F)F)ncn12 (stereo not drawn)  activation at 1 µM           > 60%
19  COc1cccc(-c2cc(C)n3cnc(C(=O)NC(C4CC4)C(F)(F)F)c3n2)c1 (stereo not drawn)  activation at 1 µM           > 60%
20  COc1cccc(-c2cc(C)n3cnc(C(=O)NC(C)C4CC4)c3n2)c1 (stereo not drawn)  activation at 1 µM           > 60%
21  Cc1cc(-c2ccc(F)cc2)n2cnc(C(=O)N[C@@H](C)C3CC3)c2n1  activation at 1 µM           < 30%
22  Cc1cc(-c2ccccn2)nc2c(C(=O)NC(C)C3CC3)ncn12 (stereo not drawn)  activation at 1 µM           < 30%
23  Cc1cc(-c2ccccn2)nc2c(C(=O)NC(CC(C)C)C3CC3)ncn12 (stereo not drawn)  activation at 1 µM           > 60%
24  C#Cc1cccc(C2(NC(=O)c3ncn4c(C)cc(C)nc34)CC2)c1  activation at 1 µM       30 to 60%
